Reference source: ChEMBL document CHEMBL3580660

assay: Acute toxicity in ICR mouse assessed as survival at 512 mg/kg, oral gavage on day 14; type: organism-based; conditions: in vivo
property_name: survival at 14 day (%)
Give just the number in %; leave the unit off.

# input For CC1(C)CC[C@]23CC[C@@]4(C)[C@]5(C)CC[C@H]6C(C)(C)C(=O)C(C#N)=C[C@]6(C)C5=CC(=O)[C@@]4([C@@H]2C1)N(C1CCCCC1)C3=O , what is its reported survival at 14 day?
# output 63

====

experiment: Apparent permeability across apical to basolateral side in human Caco2 cells at 0.5 uM measured after 30 mins by LC-MS/MS analysis; type: ADME, cell-based; conditions: Caco-2
property_name: Papp A→B at 0.5 h, 0.5 µM (×10⁻⁶ cm/s)
# value in ×10⁻⁶ cm/s; strip the unit string

# input Recorded Papp A→B at 0.5 h, 0.5 µM for CC1(C)CC[C@]23CC[C@@]4(C)[C@]5(C)CC[C@H]6C(C)(C)C(=O)C(C#N)=C[C@]6(C)C5=CC(=O)[C@@]4([C@@H]2C1)N(C1CCCCC1)C3=O , please?
# output 0.045

====

test: Acute toxicity in ICR mouse assessed as survival at 800 mg/kg, oral gavage on day 14; assay type: organism-based; details: in vivo
property_name: survival at 14 day (%)
Entry rule: numbers only, all in %.

# input Which value of survival at 14 day has been reported for CC1(C)CC[C@]23CC[C@@]4(C)[C@]5(C)CC[C@H]6C(C)(C)C(=O)C(C#N)=C[C@]6(C)C5=CC(=O)[C@@]4([C@@H]2C1)N(C1CCCCC1)C3=O in the records?
# output 0

====

Target: UniProtKB P05177
Sequence (P05177 whole entry): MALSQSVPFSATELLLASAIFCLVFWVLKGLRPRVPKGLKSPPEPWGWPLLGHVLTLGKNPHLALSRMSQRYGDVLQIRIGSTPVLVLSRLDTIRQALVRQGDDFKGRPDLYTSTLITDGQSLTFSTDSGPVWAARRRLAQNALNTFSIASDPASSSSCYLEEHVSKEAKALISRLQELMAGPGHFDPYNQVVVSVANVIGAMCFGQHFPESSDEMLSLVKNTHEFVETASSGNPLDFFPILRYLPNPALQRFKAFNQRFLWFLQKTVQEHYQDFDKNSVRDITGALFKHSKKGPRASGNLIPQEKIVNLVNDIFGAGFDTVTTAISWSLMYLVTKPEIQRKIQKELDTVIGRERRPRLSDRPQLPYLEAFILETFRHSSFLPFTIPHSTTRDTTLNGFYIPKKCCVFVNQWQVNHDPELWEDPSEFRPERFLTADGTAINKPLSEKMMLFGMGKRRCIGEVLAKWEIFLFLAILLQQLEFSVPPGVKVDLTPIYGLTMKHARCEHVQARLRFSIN
pIC50: −log10 of the molar value.
property_name: pIC50

# input What pIC50 appears in the records for this compound with UniProtKB P05177? CC1(C)CC[C@]23CC[C@@]4(C)[C@]5(C)CC[C@H]6C(C)(C)C(=O)C(C#N)=C[C@]6(C)C5=CC(=O)[C@@]4([C@@H]2C1)N(C1CCCCC1)C3=O
# output < 4.00

====

target: Cytochrome P450 3A4 (Homo sapiens, UniProt P08684)
Sequence (P08684 whole entry): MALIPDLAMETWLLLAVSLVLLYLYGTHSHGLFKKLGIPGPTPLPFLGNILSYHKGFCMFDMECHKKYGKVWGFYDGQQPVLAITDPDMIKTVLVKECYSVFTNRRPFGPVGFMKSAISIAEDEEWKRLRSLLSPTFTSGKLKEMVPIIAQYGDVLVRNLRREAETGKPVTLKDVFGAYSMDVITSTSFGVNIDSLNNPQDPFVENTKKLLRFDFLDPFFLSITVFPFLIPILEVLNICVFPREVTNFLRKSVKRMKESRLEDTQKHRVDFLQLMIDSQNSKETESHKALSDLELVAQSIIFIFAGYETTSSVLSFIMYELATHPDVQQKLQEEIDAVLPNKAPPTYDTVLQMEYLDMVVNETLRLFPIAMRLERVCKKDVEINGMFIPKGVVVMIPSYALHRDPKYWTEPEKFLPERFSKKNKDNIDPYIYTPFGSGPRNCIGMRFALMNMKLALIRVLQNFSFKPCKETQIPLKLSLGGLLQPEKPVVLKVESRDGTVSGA
property_name: IC50 (nM)
Numeric answer only, unit nM assumed.

# input Param readout = IC50; param system = Cytochrome P450 3A4 (Homo sapiens, UniProt P08684); param query = CC1(C)CC[C@]23CC[C@@]4(C)[C@]5(C)CC[C@H]6C(C)(C)C(=O)C(C#N)=C[C@]6(C)C5=CC(=O)[C@@]4([C@@H]2C1)N(C1CCCCC1)C3=O ; response: value
# output 932

====

assay: Acute toxicity in ICR mouse assessed as survival at 640 mg/kg, oral gavage on day 14; type: organism-based; conditions: in vivo
property_name: survival at 14 day (%)
Please give a number only; it is taken to be in %.

# input What does the record list as survival at 14 day for CC1(C)CC[C@]23CC[C@@]4(C)[C@]5(C)CC[C@H]6C(C)(C)C(=O)C(C#N)=C[C@]6(C)C5=CC(=O)[C@@]4([C@@H]2C1)N(C1CCCCC1)C3=O ?
# output 25

====

assay: Half life in human liver microsomes by LC-MS/MS analysis; type: ADME
property_name: half-life (min)
Record the value in min, omitting the unit from your answer.

# input Can you share its half-life? I mean this molecule: CC1(C)CC[C@]23CC[C@@]4(C)[C@]5(C)CC[C@H]6C(C)(C)C(=O)C(C#N)=C[C@]6(C)C5=CC(=O)[C@@]4([C@@H]2C1)N(C1CCCCC1)C3=O
# output 39
